Numbers sourced from PubChem BioAssay AID692.

Biological target: Steroidogenic factor 1 (Homo sapiens) (UniProt Q13285)
Sequence (Q13285 whole entry, looked up, the tested form may be a part): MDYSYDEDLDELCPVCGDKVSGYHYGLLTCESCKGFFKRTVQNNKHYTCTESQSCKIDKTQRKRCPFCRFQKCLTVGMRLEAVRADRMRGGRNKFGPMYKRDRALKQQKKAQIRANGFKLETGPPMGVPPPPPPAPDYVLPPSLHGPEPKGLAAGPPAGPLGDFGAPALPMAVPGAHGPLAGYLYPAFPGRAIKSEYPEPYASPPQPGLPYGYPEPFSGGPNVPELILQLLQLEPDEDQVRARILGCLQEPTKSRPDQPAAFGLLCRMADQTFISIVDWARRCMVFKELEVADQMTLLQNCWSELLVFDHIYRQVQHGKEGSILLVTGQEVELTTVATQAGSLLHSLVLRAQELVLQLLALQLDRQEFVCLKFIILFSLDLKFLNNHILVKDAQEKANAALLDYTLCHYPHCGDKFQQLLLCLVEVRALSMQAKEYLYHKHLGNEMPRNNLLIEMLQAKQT
Experiment: SF-1 activators, concentration-response, dose response, cell-based, CHO-K1, Gal4-SF-1 LBD, luciferase luminescence (AID 692)
Settings: CHO-K1 Gal4-SF1 LBD luciferase reporter, activation
Calls of active or inactive are those of the source.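 How the source made its calls: active means EC50 at or below a set limit; inactive means the rest.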
Respond only with the outcome that fits, drawn from TRUE (active), FALSE (inactive)

>>> print(df.to_string())
                                molecule                        measurement_target  class_name
0  C/C(N)=C(/C#N)C(=O)CSc1ccc2c(c1)OCCO2  Steroidogenic factor 1 (Homo sapiens) (UniProt Q13285)        TRUE

QUERY: So what was the verdict on O=C1CCCC(O)=C1C=Nc1ccc(O)cc1 in this test?
RESULT: TRUE

QUERY: For CC1(C)CC(=O)C(C=Nc2ccccc2)=C(O)C1 , what call appears in the results of this test?
RESULT: TRUE

QUERY: Just curious, what result did COc1ccc(C(=O)/C=C/Nc2cccc(C)n2)cc1OC get here?
RESULT: TRUE

QUERY: I would be grateful if you could indicate the recorded call for CC1(C)CC(=O)C(C=Nc2ccc3[nH]ncc3c2)=C(O)C1 .
RESULT: FALSE

###

Reported values of EC50 for individual entries
Target: Steroidogenic factor 1 (Homo sapiens)
Assay: SF-1 activators, concentration-response, dose response, cell-based, CHO-K1, Gal4-SF-1 LBD, luciferase luminescence (AID 692)
Details: CHO-K1 Gal4-SF1 LBD luciferase reporter, activation

                                   compound  reported_value
0  COC(=O)c1ccc(/C(O)=C(\C#N)c2nc3ccccc3s2)cc1         2.71 µM

QUERY: I am curious: what EC50 value has been reported for Cc1ccc(C2/C(=C(\O)c3cnn(-c4ccccc4)c3C)C(=O)C(=O)N2CCN(C)C)o1 (stereo not drawn) ?
RESULT: 3.59 µM
